For each of the compounds below, state its melting point.

Recorded melting point of CC(C)(Sc1cc(C(C)(C)C)c(O)c(C(C)(C)C)c1)Sc1cc(C(C)(C)C)c(OCCC(O)C(O)CCO)c(C(C)(C)C)c1 (stereo not drawn) , please. 75 to 77 °C

Recorded melting point of CC(C)(Sc1cc(C(C)(C)C)c(O)c(C(C)(C)C)c1)Sc1cc(C(C)(C)C)c(OC[C@@H](O)[C@H](O)CO)c(C(C)(C)C)c1 , please. 69 to 71 °C

Recorded melting point of CC(C)(Sc1cc(C(C)(C)C)c(O)c(C(C)(C)C)c1)Sc1cc(C(C)(C)C)c(OCCO)c(C(C)(C)C)c1 , please. 146 to 147 °C

====

Observed Property: melting point

Recorded melting point of CN(CC(=O)O)C(=O)COc1c(C(C)(C)C)cc(SC(C)(C)Sc2cc(C(C)(C)C)c(O)c(C(C)(C)C)c2)cc1C(C)(C)C , please. 115 to 119 °C

Recorded melting point of CC(C)(Sc1cc(C(C)(C)C)c(O)c(C(C)(C)C)c1)Sc1cc(C(C)(C)C)c(OCCC[C@H](O)CO)c(C(C)(C)C)c1 , please. 68 to 71 °C

Recorded melting point of CCOC1O[C@H](CO)[C@@H](COc2c(C(C)(C)C)cc(SC(C)(C)Sc3cc(C(C)(C)C)c(O)c(C(C)(C)C)c3)cc2C(C)(C)C)O1 (some centres unmarked) , please. 60 to 62 °C

Recorded melting point of CC(C)(Sc1cc(C(C)(C)C)c(O)c(C(C)(C)C)c1)Sc1cc(C(C)(C)C)c(OCC[C@H](O)CO)c(C(C)(C)C)c1 , please. 110 to 112 °C

Recorded melting point of COC[C@H](O)[C@@H](O)COc1c(C(C)(C)C)cc(SC(C)(C)Sc2cc(C(C)(C)C)c(O)c(C(C)(C)C)c2)cc1C(C)(C)C , please. 62 to 64 °C

Recorded melting point of CC(C)(Sc1cc(C(C)(C)C)c(O)c(C(C)(C)C)c1)Sc1cc(C(C)(C)C)c(OCC(=O)NC(CO)CO)c(C(C)(C)C)c1 , please. 163 to 164 °C

Recorded melting point of CC(C)(Sc1cc(C(C)(C)C)c(O)c(C(C)(C)C)c1)Sc1cc(C(C)(C)C)c(OC[C@H](O)[C@@H](O)CO)c(C(C)(C)C)c1 , please. 69 to 71 °C

Recorded melting point of COC[C@@H](O)[C@H](O)COc1c(C(C)(C)C)cc(SC(C)(C)Sc2cc(C(C)(C)C)c(O)c(C(C)(C)C)c2)cc1C(C)(C)C , please. 68 to 70 °C

====

For each of the compounds below, state its pIC50.
# Tested on: VCAM-1
# Assay Text: In Vitro VCAM-1 Assay - Method 2 (19 h predosing, 4 h TNFα stimulation, surface VCAM-1)
# Assay type: cell-based
# Reported Conditions: Homo sapiens; HAEC or HPAEC, predosed 19 hours, TNFα 1.5 ng/ml 4 hours
Units for pIC50: none; it is -log10 of a concentration expressed in mol/L.

Please tell me: pIC50 of CC(C)(Sc1cc(C(C)(C)C)c(O)c(C(C)(C)C)c1)Sc1cc(C(C)(C)C)c(OCCC[C@H](O)CO)c(C(C)(C)C)c1 [Ex-13] , system VCAM-1? 4.96

Please tell me: pIC50 of CC(C)(Sc1cc(C(C)(C)C)c(O)c(C(C)(C)C)c1)Sc1cc(C(C)(C)C)c(OCC[C@@H](O)CO)c(C(C)(C)C)c1 [Ex-11] , system VCAM-1? 5.15

Please tell me: pIC50 of CC(C)(Sc1cc(C(C)(C)C)c(O)c(C(C)(C)C)c1)Sc1cc(C(C)(C)C)c(OCCC(O)C(O)CCO)c(C(C)(C)C)c1 (stereo not drawn) [Ex-14] , system VCAM-1? 5.04

Please tell me: pIC50 of CC(C)(Sc1cc(C(C)(C)C)c(O)c(C(C)(C)C)c1)Sc1cc(C(C)(C)C)c(OC[C@H](O)[C@@H](O)CO)c(C(C)(C)C)c1 [Ex-1] , system VCAM-1? 5.05

Please tell me: pIC50 of CC(C)(Sc1cc(C(C)(C)C)c(O)c(C(C)(C)C)c1)Sc1cc(C(C)(C)C)c(OCC[C@H](O)CO)c(C(C)(C)C)c1 [Ex-10] , system VCAM-1? 5.10

Please tell me: pIC50 of CC(C)(Sc1cc(C(C)(C)C)c(O)c(C(C)(C)C)c1)Sc1cc(C(C)(C)C)c(OCC(CO)CO)c(C(C)(C)C)c1 [Ex-18] , system VCAM-1? 5.22
